Test system: HEK-293T
test-description: Multiplex assay against HEK293T
Format: toxicity, cell-based
settings: human, 12 h, 1 µM, compound concentration 1 uM, replicate 1
# Population Tubulin-Different-Phenotype (%) per record follows
# output: bare number, implied unit %

{"columns": ["compound", "system-name", "value"],
 "data": [
  ["COc1ccc2[nH]c(I)c(CCNC(C)=O)c2c1", "HEK-293T", 35],
  ["O=C(Nc1cc(-c2ccccc2)nn1-c1ccccc1F)c1ccc([N+](=O)[O-])cc1", "HEK-293T", 19],
  ["CN1CCN2c3ccccc3Cc3ccccc3C2C1.Cl (stereo not drawn) [MIANSERIN HYDROCHLORIDE]", "HEK-293T", 21],
  ["CC(C)C[C@H](CO)Nc1nc(S[C@@H](C)c2ccccc2)nc2nc(N)sc12", "HEK-293T", 27]
]}

Need Population Tubulin-Different-Phenotype (%) of `O=c1ccc2ccc(OCCCCN3CCN(c4cccc5sccc45)CC3)cc2[nH]1` , thanks.
51

Try this compound too: `Cc1c(Cc2ccc3ccccc3n2)c2cc(F)ccc2n1CC(=O)O`
20

Try this compound too: CN(C)C/C=C/C(=O)Nc1ccc(C(=O)N2CCCC(Nc3ncc(Cl)c(-c4c[nH]c5ccccc45)n3)C2)cc1 (stereo not drawn)
69

Try this compound too: `Cc1cc(NC(=O)NCCN2CCC(O)(Cc3ccccc3)CC2)c2ccccc2n1`
25

Try this compound too: `CN1CCN(c2ccc(Nc3c4ccccc4nc4ccccc34)cc2)CC1.Cl.Cl.O`
28

Try this compound too: `CN1CCC(C(=O)c2cccc(NC(=O)c3c(F)cc(F)cc3F)n2)CC1`
31

Try this compound too: `O=c1nc2[nH]c3ccccc3nc-2c(=O)[nH]1`
33

Try this compound too: `OCCCNc1cc(-c2ccnc(Nc3cccc(Cl)c3)n2)ccn1`
75

Try this compound too: `COCCn1c(C)c(C)s/c1=N\C(=O)C1C(C)(C)C1(C)C`
29
